molecular target: Matrix metalloproteinase-9 (Homo sapiens, UniProt P14780); test: biochemical; format: cell-based; also: in other assays of this panel Not Active means under 50% inhibition at 10 µM;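 also: inhibition of isolated MMP-9 enzyme activity toward a synthetic peptide substrate, from the DrugMatrix protease screening panel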
Sequence (P14780 whole entry): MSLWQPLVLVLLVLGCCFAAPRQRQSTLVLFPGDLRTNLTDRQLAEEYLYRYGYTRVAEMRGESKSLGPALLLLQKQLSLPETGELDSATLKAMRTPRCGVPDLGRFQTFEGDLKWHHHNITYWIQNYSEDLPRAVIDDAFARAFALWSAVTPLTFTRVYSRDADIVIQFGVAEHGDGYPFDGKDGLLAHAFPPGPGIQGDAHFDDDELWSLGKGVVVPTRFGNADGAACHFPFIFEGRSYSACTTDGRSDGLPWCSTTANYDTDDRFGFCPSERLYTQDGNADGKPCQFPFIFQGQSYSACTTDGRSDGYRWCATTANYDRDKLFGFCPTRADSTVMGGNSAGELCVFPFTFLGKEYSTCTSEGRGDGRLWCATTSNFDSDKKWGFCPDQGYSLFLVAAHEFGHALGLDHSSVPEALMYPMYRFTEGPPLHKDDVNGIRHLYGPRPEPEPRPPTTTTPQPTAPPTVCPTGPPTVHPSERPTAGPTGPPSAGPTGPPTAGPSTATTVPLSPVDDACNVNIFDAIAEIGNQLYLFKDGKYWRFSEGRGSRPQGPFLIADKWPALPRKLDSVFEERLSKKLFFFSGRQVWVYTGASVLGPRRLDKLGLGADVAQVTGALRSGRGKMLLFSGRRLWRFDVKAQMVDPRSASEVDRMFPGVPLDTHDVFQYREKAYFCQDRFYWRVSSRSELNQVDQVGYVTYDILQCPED
attributeMeasured: IC50

Recorded results for 5 compounds are shown here.
* CCCC(CCC)C(=O)O | Not Active
* COCCCOc1ccnc(C[S+]([O-])c2nc3ccccc3[nH]2)c1C (centres undefined) | Not Active
* CCCCN1CCCCC1C(=O)Nc1c(C)cccc1C.Cl (centres undefined) [BUPIVACAINE HYDROCHLORIDE] | Not Active
* CC1(C)O[C@@H]2C[C@H]3[C@@H]4C[C@H](F)C5=CC(=O)C=C[C@]5(C)[C@@]4(F)[C@@H](O)C[C@]3(C)[C@]2(C(=O)CO)O1 [FLUOCINOLONE ACETONIDE] | Not Active
* CC(C(=O)O)c1cccc(C(=O)c2ccccc2)c1 (centres undefined) | Not Active

May I ask what IC50 has been recorded for CC(C)NCC(O)COc1cccc2ccccc12 (centres undefined) ?
Not Active

Then "O=C(O)Cc1ccccc1Nc1c(Cl)cccc1Cl" ?
Not Active

Then "CN1CCC(=C2c3ccccc3C=Cc3ccccc32)CC1" ?
Not Active
